Source: ChEMBL document CHEMBL4422615

biological target: Adenosine receptor A2a (Homo sapiens, UniProt P29274)
Sequence (P29274 whole entry): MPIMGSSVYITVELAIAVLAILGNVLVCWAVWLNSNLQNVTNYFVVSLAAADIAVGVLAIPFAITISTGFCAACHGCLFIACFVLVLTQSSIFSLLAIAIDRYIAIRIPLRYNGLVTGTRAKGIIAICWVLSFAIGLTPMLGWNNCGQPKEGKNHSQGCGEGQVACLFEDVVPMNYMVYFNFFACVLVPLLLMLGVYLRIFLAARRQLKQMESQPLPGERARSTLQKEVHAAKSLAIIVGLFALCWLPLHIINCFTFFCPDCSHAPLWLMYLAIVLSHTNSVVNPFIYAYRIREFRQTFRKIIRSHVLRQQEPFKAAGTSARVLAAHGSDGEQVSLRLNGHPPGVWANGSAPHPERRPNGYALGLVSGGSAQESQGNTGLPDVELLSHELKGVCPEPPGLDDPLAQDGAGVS
ENDPOINT_LABEL: Ki

Test item CCn1c(=O)c2c(C)c(C(=O)N3CCC(O)CC3)sc2n(CCC(F)(F)F)c1=O ; Adenosine receptor A2a (Homo sapiens, UniProt P29274); reported Ki was > 1000 nM

----------
assay: Volume of distribution at steady state in dog at 0.3 mg/kg, iv administered as infusion for 15 mins by HPLC-MS/MS analysis; type: ADME, organism-based, Canis lupus familiaris; details: in vivo, read-out: Vdss
ENDPOINT_LABEL: Vd (L/kg)
Note: unit L/kg is implicit; provide only the numeric part.

GET /value?item= CCn1c(=O)c2c(C)c(C(=O)N3CCC(O)CC3)sc2n(CCC(F)(F)F)c1=O &field=Vd returns 2

----------
biological target: Adenosine receptor A2b (Homo sapiens, UniProt P29275); experiment: Displacement of [3H]DPCPX from human A2B adenosine receptor expressed in HEK293 cell membranes after 60 mins by radioligand displacement assay
For each entry below, report its pIC50 value.
Reminder that pIC50 is minus the log10 of a molar concentration.

Documented pIC50 of COCCn1c(=O)n(CCc2ccccc2)c(=O)c2c(C)c(C)sc21 : 6.70

Kindly note the recorded pIC50 for Cc1csc2c1c(=O)n(CCc1ccccc1)c(=O)n2CC1CCCO1 (racemic) , which is 6.28

For reference, reported pIC50 for CCn1c(=O)c2c(C)csc2n(CCOC)c1=O stands at 6.19

Lab book: pIC50 of CCn1c(=O)c2c3c(sc2n(CCOC)c1=O)CCCC3 noted as 6.41

Lab book: pIC50 of COCCn1c(=O)n(CC2(c3ccccc3)CC2)c(=O)c2c(C)csc21 noted as 5.82

Summary for this molecule, Cc1csc2c1c(=O)n(CCc1cccnc1)c(=O)n2CCC(F)(F)F : pIC50 is 7.26

Entry COCCn1c(=O)n(CCc2ccccc2)c(=O)c2c(C)c(C(=O)O)sc21 , pIC50 reported as 5.68

The value of pIC50 measured for the molecule Cc1csc2c1c(=O)n(CCc1ccccc1)c(=O)n2CCc1ccc(S(N)(=O)=O)cc1 turned out to be 5.77

----------
Please provide measured Emax for the entries that follow.
target: PXR (Homo sapiens, UniProt O75469); assay: Activation of PXR in human HepG2 cells assessed as induction of CYP3A4 expression at 2 x 10^-9 to 50 x 10^-6 mol/L by luciferase reporter gene assay relative to control; assay type: ADME, cell-based
Sequence (O75469 whole entry): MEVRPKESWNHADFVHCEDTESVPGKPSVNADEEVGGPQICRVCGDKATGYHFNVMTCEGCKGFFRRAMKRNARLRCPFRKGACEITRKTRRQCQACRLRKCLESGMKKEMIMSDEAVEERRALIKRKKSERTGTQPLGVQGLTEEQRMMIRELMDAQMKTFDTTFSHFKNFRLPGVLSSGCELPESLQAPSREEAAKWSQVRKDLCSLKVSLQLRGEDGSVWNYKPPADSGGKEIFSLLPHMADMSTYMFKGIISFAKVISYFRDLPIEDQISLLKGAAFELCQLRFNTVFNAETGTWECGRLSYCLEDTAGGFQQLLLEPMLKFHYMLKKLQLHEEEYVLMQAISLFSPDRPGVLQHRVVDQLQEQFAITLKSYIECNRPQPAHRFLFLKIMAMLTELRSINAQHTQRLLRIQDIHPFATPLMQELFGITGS
Write it as a number; the unit % goes unstated.

Noted for CCn1c(=O)c2c(C)c(C(=O)N3CCC(O)CC3)sc2n(CCC(F)(F)F)c1=O : its Emax reads 16

Notebook: Cc1csc2c1c(=O)n(CCc1ccccc1)c(=O)n2CC1CCCO1 (stereo in doubt; 7) , Emax read as 85

----------
biological target: Adenosine receptor A3 (Mus musculus); test: Antagonist activity at recombinant mouse A3 adenosine receptor expressed in CHO cells after 3 to 4 hrs by luciferase reporter gene assay
Sequence (Q61618 whole entry): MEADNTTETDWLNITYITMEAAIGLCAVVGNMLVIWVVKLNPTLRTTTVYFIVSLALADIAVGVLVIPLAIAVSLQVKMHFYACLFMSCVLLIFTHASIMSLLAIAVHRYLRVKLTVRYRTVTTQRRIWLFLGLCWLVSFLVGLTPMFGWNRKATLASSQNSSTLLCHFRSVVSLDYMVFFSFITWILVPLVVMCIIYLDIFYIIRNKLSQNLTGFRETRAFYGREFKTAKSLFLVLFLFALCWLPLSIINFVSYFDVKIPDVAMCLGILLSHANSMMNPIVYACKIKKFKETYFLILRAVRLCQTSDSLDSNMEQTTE
ENDPOINT_LABEL: IC50

Documented IC50 of CCn1c(=O)c2c(C)c(C(=O)N3CCC(O)CC3)sc2n(CCC(F)(F)F)c1=O : > 6.7 µM

----------
ENDPOINT_LABEL: pIC50
In textbook form, pIC50 equals minus log to base ten of the concentration in mol/L.

Field pIC50 (system: Cytochrome P450 2C9 (Homo sapiens, UniProt P11712)) for entry Cc1csc2c1c(=O)n(CCc1ccccc1)c(=O)n2CC1CCCO1 (stereo in doubt; 7) = 5.08

----------
Provide the recorded efflux ratio for the entries that follow.
assay: Efflux ratio in human Caco2 cells; type: ADME, cell-based; details: Caco-2
Provide a numeric answer; units are not to be included.

Lab note: Cc1csc2c1c(=O)n(CCc1ccccc1)c(=O)n2CC1CCCO1 (stereo in doubt; 7) gave efflux ratio of 0.69

Documented efflux ratio of CCn1c(=O)c2c(C)c(C(=O)N3CCC(O)CC3)sc2n(CCC(F)(F)F)c1=O : 0.82

----------
experiment: Partition coefficient, log P of the compound; type: physicochemical; conditions: octanol/water
ENDPOINT_LABEL: logP
Answer as a number with no unit attached.

Lab note: measured logP of CCn1c(=O)c2c(C)c(C(=O)N3CCC(O)CC3)sc2n(CCC(F)(F)F)c1=O was 1.99

----------
target: Adenosine receptor A3 (Homo sapiens); experiment: Antagonist activity at recombinant human A3 adenosine receptor expressed in CHO cells after 3 to 4 hrs by luciferase reporter gene assay
Sequence (P0DMS8 whole entry): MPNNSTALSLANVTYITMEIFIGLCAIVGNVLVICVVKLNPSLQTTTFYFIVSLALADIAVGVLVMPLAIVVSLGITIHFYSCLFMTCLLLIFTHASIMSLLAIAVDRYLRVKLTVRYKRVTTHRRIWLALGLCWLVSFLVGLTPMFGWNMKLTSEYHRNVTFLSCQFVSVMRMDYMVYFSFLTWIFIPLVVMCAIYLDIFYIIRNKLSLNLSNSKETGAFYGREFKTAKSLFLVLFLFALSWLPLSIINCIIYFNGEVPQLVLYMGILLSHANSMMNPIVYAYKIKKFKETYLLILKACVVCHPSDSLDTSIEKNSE
pIC50: −log10 of the molar value.
ENDPOINT_LABEL: pIC50

Form field, pIC50 with Adenosine receptor A3 (Homo sapiens), item CCn1c(=O)c2c(C)c(C(=O)N3CCC(O)CC3)sc2n(CCC(F)(F)F)c1=O : < 5.17

----------
assay: Blood clearance in rat by measuring Intrinsic clearance in rat hepatocytes by MS/MS analysis; assay type: ADME, cell-based
ENDPOINT_LABEL: CLhep predicted (mL/min/kg)
Give the quantity in mL/min/kg, number only.

CCn1c(=O)c2c(C)c(C(=O)N3CCC(O)CC3)sc2n(CCC(F)(F)F)c1=O yielded CLhep predicted of 23.3

Just so you know, measured CLhep predicted for Cc1csc2c1c(=O)n(CCc1ccccc1)c(=O)n2CC1CCCO1 (stereo in doubt; 7) came out at 66.7

----------
test: Half life in rat at 1 mg/kg, po for 15 mins by HPLC-MS/MS analysis; assay type: ADME, organism-based; details: in vivo
ENDPOINT_LABEL: half-life (h)
Field format: number, assumed h, no unit text.

The reported value for CCn1c(=O)c2c(C)c(C(=O)N3CCC(O)CC3)sc2n(CCC(F)(F)F)c1=O in terms of half-life is 1.4

----------
experiment: Volume of distribution at steady state in rat at 0.3 mg/kg, iv administered as infusion for 15 mins by HPLC-MS/MS analysis; assay type: ADME, organism-based; conditions: in vivo, read-out: Vdss
ENDPOINT_LABEL: Vd (L/kg)
Write the number in L/kg without appending the unit.

Briefly, Vd measured for CCn1c(=O)c2c(C)c(C(=O)N3CCC(O)CC3)sc2n(CCC(F)(F)F)c1=O : 1.5

----------
For each entry below, report its IC50 value.
Biological target: UniProt:P29275
Sequence (P29275 whole entry): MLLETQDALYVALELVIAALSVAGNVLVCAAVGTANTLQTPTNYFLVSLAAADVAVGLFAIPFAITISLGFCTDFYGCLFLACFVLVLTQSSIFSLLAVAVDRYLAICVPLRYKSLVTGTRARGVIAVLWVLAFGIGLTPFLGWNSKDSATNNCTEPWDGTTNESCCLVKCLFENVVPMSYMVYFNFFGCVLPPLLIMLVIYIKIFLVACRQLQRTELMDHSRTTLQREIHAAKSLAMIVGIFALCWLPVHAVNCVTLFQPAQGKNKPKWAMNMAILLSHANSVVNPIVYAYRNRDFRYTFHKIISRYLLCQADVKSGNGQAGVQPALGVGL
Assay: Displacement of [3H]DPCPX from human A2B adenosine receptor expressed in HEK293 cell membranes after 60 mins by radioligand displacement assay
Kindly provide the numeric value in nM only, without the unit symbol.

Reported IC50 for COCCn1c(=O)n(CCc2ccccc2)c(=O)c2c(C)c(CN3CCCC3)sc21 was 200

Entry COCCn1c(=O)n(CCc2ccccc2)c(=O)c2c(C)c(Cl)sc21 ; IC50 = 3300

IC50 for COCCn1c(=O)n(CCc2ccccc2)c(=O)c2c(C)c(Cc3ccccc3)sc21 is 540

Please fill in: IC50 reported for COCCn1c(=O)n(CCc2ccccc2)c(=O)c2ccsc21 = 4700

Summary for this compound, COCCn1c(=O)n(CCc2ccccc2)c(=O)c2c(C)c(C(C)(O)c3cncn3C)sc21 (configuration not stated) : IC50 is 1200

Short answer for COCCn1c(=O)n(CC(C)(C)C)c(=O)c2c(C)csc21 : IC50 was 1600

Field IC50 (entry Cc1csc2c1c(=O)n(CCc1ccccc1)c(=O)n2CCC(F)(F)F ) reads 56

Record CCN(CC(C)(C)O)C(=O)c1sc2c(c1C)c(=O)n(CC)c(=O)n2CCC(F)(F)F . Reported IC50: 39

Summary for this compound, Cc1csc2c1c(=O)n(CCc1ccccc1)c(=O)n2Cc1cnc[nH]1 : IC50 is 1300

The recorded IC50 for entry Cc1csc2c1c(=O)n(CCc1ccccc1)c(=O)n2Cc1nc2cc(S(N)(=O)=O)ccc2o1 equals 1100

get_value(item= COCCn1c(=O)n(CCc2ccccc2)c(=O)c2c(C)c(Cc3c[nH]c(C)n3)sc21 , readout=IC50) returns 8.8

Measured IC50, CCN(CC)C(=O)c1sc2c(c1C)c(=O)n(CCc1ccccc1)c(=O)n2CCOC : 42

get_value(item= CCn1c(=O)c2c(C)c(C)sc2n(CCOC)c1=O , readout=IC50) returns 440

GET /value?item= COCCn1c(=O)n(CCc2ccccc2)c(=O)c2c(C)c(Cc3nc[nH]c3C)sc21 &field=IC50 returns 2.4

The reported IC50 of the compound Cc1csc2[nH]c(=O)n(CCc3ccccc3)c(=O)c12 was 480

Lab book: IC50 of COCCn1c(=O)n(CCc2ccccc2)c(=O)c2c(C)c(C(O)c3ccccc3)sc21 (configuration not stated) noted as 30

So, COCCn1c(=O)n(CCc2ccccc2)c(=O)c2c(C)csc21 ? Its IC50 was 300

# compound COCCn1c(=O)n(CCc2ccccc2)c(=O)c2c(C)c(C(O)C3CC3)sc21 (configuration not stated) ; its IC50 = 14

Just so you know, measured IC50 for COCCn1c(=O)n(CCc2ccccc2)c(=O)c2c(C)c(C(C)(O)C3CC3)sc21 (configuration not stated) came out at 150

Value of measured IC50 for the entry COCCn1c(=O)n(CC=C(F)F)c(=O)c2c(C)csc21 : 4900

According to the records, this compound COCCn1c(=O)n(CCc2ccccc2)c(=O)c2c(C)c(C(=O)N3CCCC3)sc21 displays IC50 of 260

For record COCCn1c(=O)n(CCc2ccccc2)c(=O)c2c(C)c(-c3ccccc3)sc21 the listed IC50 is 4900

In plain terms, COCCn1c(=O)n(CCc2ccccc2)c(=O)c2c(C)c(Cn3ccnc3)sc21 has a documented IC50 of 12

get_value(item= COCCn1c(=O)n(CCc2ccccc2)c(=O)c2c(C)c(COC3CCCC3)sc21 , readout=IC50) returns 250

Value of measured IC50 for the entry Cc1csc2c1c(=O)n(CCc1ccccc1F)c(=O)n2CCC(F)(F)F : 73

Field IC50 (entry CCN(CCO)C(=O)c1sc2c(c1C)c(=O)n(CC)c(=O)n2CCC(F)(F)F ) reads 50

IC50 measured on COCCn1c(=O)n(CCc2ccccc2)c(=O)c2c(C)c(C(=O)N(C)OC)sc21 = 390

get_value(item= CCOC(=O)c1sc2c(c1C)c(=O)n(CCc1ccccc1)c(=O)n2CCOC , readout=IC50) returns 1700

Summary for this compound, CCn1c(=O)c2c3c(sc2n(CCOC)c1=O)CCC3 : IC50 is 220

IC50 measured on COCCn1c(=O)n(CCc2ccccc2)c(=O)c2c(C)c(C(=O)N3CC(O)C3)sc21 = 200

So for COCCn1c(=O)n(CCc2ccccc2)c(=O)c2c(C)c(C(=O)c3cn(C)cn3)sc21 , the logged IC50 turned out to be 190

Quick note, IC50 for CCN(CC)C(=O)c1sc2c(c1C)c(=O)n(CCOC)c(=O)n2CCC(F)(F)F landed at 97

Looking up Cc1csc2c1c(=O)n(CCc1ccccc1)c(=O)n2Cc1nccn1C , I found its IC50 recorded as 145

Entry under test: Cc1csc2c1c(=O)n(CCc1ccccc1)c(=O)n2CC#N . Its IC50 was 130

Cc1csc2c1c(=O)n(CCc1ccccc1)c(=O)n2Cc1ncc[nH]1 yielded IC50 of 130

get_value(item= COCCn1c(=O)n(CCc2ccccc2)c(=O)c2c(C)c(C(F)(F)c3ccccc3)sc21 , readout=IC50) returns 2800

Form field IC50, entry Cc1[nH]cnc1Cn1c(=O)n(CCc2ccccc2)c(=O)c2c(C)csc21 : 3400

Measured IC50 of Cc1csc2c1c(=O)n(CCc1ccccc1)c(=O)n2CC1CCCO1 (stereo in doubt; 7) : 180
